- Species: Rattus norvegicus
- procedure-text: Open TG-GATES - Regimen: Single
- Format: toxicity, organism-based, Sprague-Dawley
- Parameters: regimen Single, gender Male, age 6 weeks
- condition-details: in vivo, po, 0 mg/kg, 24 h, tissue Blood, route gavage, dose level Control
Exercise: for every item that follows, state its recorded APTT.

Request: State, in one line, measured APTT of CN(C)CCC(c1ccc(Cl)cc1)c1ccccn1 (stereo not given)
Response: 19.7 s

Request: State, in one line, measured APTT of CNC(=C[N+](=O)[O-])NCCSCc1ccc(CN(C)C)o1
Response: 21.3 s

Request: State, in one line, measured APTT of CN1C(=O)CCS(=O)(=O)C1c1ccc(Cl)cc1 (stereo not given)
Response: 17.4 s

Request: State, in one line, measured APTT of Cc1nnc2n1-c1ccc(Cl)cc1C(c1ccccc1Cl)=NC2
Response: 20.6 s

Request: State, in one line, measured APTT of COC(=O)C1=C(C)NC(C)=C(C(=O)OC)C1c1ccccc1[N+](=O)[O-]
Response: 16.3 s

* * *

- Organism: Rattus norvegicus
- procedure-text: Open TG-GATES - Regimen: Daily Repeat
- Format: toxicity, organism-based, Sprague-Dawley
- Design: regimen Daily Repeat, gender Male, age 6 weeks
- condition-details: in vivo, po, 100 mg/kg, 72 h, tissue Liver, route gavage, dose level Low, time 3 day
Exercise: for every item that follows, state its recorded LIVER.
Could you give me the number in g? Just the number is fine.

Request: State, in one line, measured LIVER of CNC(=C[N+](=O)[O-])NCCSCc1ccc(CN(C)C)o1
Response: 11.2

Request: State, in one line, measured LIVER of O=C(OC[C@H]1O[C@@H](OC(=O)c2cc(O)c(O)c(OC(=O)c3cc(O)c(O)c(O)c3)c2)[C@H](OC(=O)c2cc(O)c(O)c(OC(=O)c3cc(O)c(O)c(O)c3)c2)[C@@H](OC(=O)c2cc(O)c(O)c(OC(=O)c3cc(O)c(O)c(O)c3)c2)[C@@H]1OC(=O)c1cc(O)c(O)c(OC(=O)c2cc(O)c(O)c(O)c2)c1)c1cc(O)c(O)c(OC(=O)c2cc(O)c(O)c(O)c2)c1
Response: 11.1

Request: State, in one line, measured LIVER of COC(=O)C1=C(C)NC(C)=C(C(=O)OC)C1c1ccccc1[N+](=O)[O-]
Response: 11

Request: State, in one line, measured LIVER of Cc1nnc2n1-c1ccc(Cl)cc1C(c1ccccc1Cl)=NC2
Response: 10.3

Request: State, in one line, measured LIVER of CCOc1ccc(NC(C)=O)cc1
Response: 10.9

Request: State, in one line, measured LIVER of CN/C(=N/CCSCc1nc[nH]c1C)NC#N
Response: 10.7

* * *

- Species: Rattus norvegicus
- procedure-text: Open TG-GATES - Regimen: Single
- Assay type: toxicity, organism-based, Sprague-Dawley
- Parameters: regimen Single, gender Male, age 6 weeks
- condition-details: in vivo, po, 0 mg/kg, 3 h, tissue Plasma, route gavage, dose level Control
Exercise: for every item that follows, state its recorded gamma-GTP.
Could you give me the number in IU/L? Just the number is fine.

Request: State, in one line, measured gamma-GTP of CN/C(=N/CCSCc1nc[nH]c1C)NC#N
Response: 1.4

Request: State, in one line, measured gamma-GTP of Brc1ccccc1
Response: 2

Request: State, in one line, measured gamma-GTP of CS(=O)(=O)O.Cc1ccc(NC(=O)c2ccc(CN3CCN(C)CC3)cc2)cc1Nc1nccc(-c2cccnc2)n1 [IMATINIB MESYLATE]
Response: 0.8

Request: State, in one line, measured gamma-GTP of O=C(OC[C@H]1O[C@@H](OC(=O)c2cc(O)c(O)c(OC(=O)c3cc(O)c(O)c(O)c3)c2)[C@H](OC(=O)c2cc(O)c(O)c(OC(=O)c3cc(O)c(O)c(O)c3)c2)[C@@H](OC(=O)c2cc(O)c(O)c(OC(=O)c3cc(O)c(O)c(O)c3)c2)[C@@H]1OC(=O)c1cc(O)c(O)c(OC(=O)c2cc(O)c(O)c(O)c2)c1)c1cc(O)c(O)c(OC(=O)c2cc(O)c(O)c(O)c2)c1
Response: 1.4

Request: State, in one line, measured gamma-GTP of CC(C)NNC(=O)c1ccncc1
Response: 1.2

Request: State, in one line, measured gamma-GTP of CCCc1cc(=O)[nH]c(=S)[nH]1
Response: 0.8

Request: State, in one line, measured gamma-GTP of Nc1c2c(nc3ccccc13)CCCC2
Response: 1.2

Request: State, in one line, measured gamma-GTP of Cc1nnc2n1-c1ccc(Cl)cc1C(c1ccccc1Cl)=NC2
Response: 1.2
